- System: picrotoxin
- Measurement description: Anti-picrotoxin action (picrotoxin-induced lethality in mice)
- Format: in vivo, male dd mice
- Experimental parameters: Mus musculus, po, 0.5 h, read-out: Anti-picrotoxin-lethal action, ED50
Entries annotated with measured ED50
Give a bare numeral; the unit mg/kg is implied.

These solved cases illustrate the format of a correct answer.
// lookup ED50 | system=picrotoxin | key= O=C1NC2CC1Cc1ccc(Cl)cc12 (centres unmarked) [A]
62

What do we get for O=C1NC2CC1Cc1ccccc12 (centres unmarked) [D] ?
1100

Another molecule: O=C1NC2CC1Cc1c(Cl)cc(Cl)cc12 (centres unmarked) [C]
50

// next item, ED50 requested
Item CN1C(=O)C2Cc3ccc(Cl)cc3C1C2 (centres unmarked) [B] with picrotoxin - ED50?
66
